assay: collision cross section (TIMS, N2 drift gas) of the primary ion; higher = larger gas-phase ion size; settings: ionization mode: ESI+; ion species: [M+H]+
Recorded Endpoint: collision cross section (Å²)
The answer is to be given in Å²; state only the numeric part.

Look over these answered cases.
CC(C)(C)CC(C)(C)c1ccc(Nc2ccc(C(C)(C)CC(C)(C)C)cc2)cc1    220.04
CCCCC(=O)O[C@]1(C(=O)CO)[C@@H](C)C[C@H]2[C@@H]3CCC4=CC(=O)C=C[C@]4(C)[C@@]3(F)[C@@H](O)C[C@@]21C [Betamethasone-17-valerate]    216.68
CC(C)NCC(O)COc1cccc2[nH]ccc12 (configuration not stated)    159

Given item CCCCC(CC)COC(=O)c1ccc(N(C)C)cc1 (configuration not stated) , the value recorded as its collision cross section is 185.61

Given item OC(Cc1ccccc1Cl)(Cn1cncn1)C1(Cl)CC1 (configuration not stated) , the value recorded as its collision cross section is 168.06

Given item `Clc1cccc(Cl)c1NC1=NCCN1` , the value recorded as its collision cross section is 145.06

Given item CC(=O)N(CC(O)CO)c1c(I)c(C(=O)NCC(O)CO)c(I)c(C(=O)NCC(O)CO)c1I (configuration not stated) [Iohexol] , the value recorded as its collision cross section is 226.32

Given item `Nc1ccc(S(=O)(=O)Nc2ccccn2)cc1` , the value recorded as its collision cross section is 154.05

Given item `COC(=O)N(OC)c1ccccc1COc1ccn(-c2ccc(Cl)cc2)n1` , the value recorded as its collision cross section is 184.99

Given item `c1ccc2sc(N3CCOCC3)nc2c1` , the value recorded as its collision cross section is 145.3

Given item Cc1cccc(Nc2ccncc2S(=O)(=O)NC(=O)NC(C)C)c1 [Torasemide] , the value recorded as its collision cross section is 188.49

Given item Cc1cc(O)cc(C)c1S(C)=O (configuration not stated) [Methiocarb-sulfoxide phenol] , the value recorded as its collision cross section is 138.02

Given item CC(C)C1CCC(Cc2ccc(Cl)cc2)C1(O)Cn1cncn1 (configuration not stated) , the value recorded as its collision cross section is 174.42

Given item Cc1ccc(OP(=O)(Oc2ccc(C)cc2)Oc2ccc(C)cc2)cc1 [Tricresylphosphate] , the value recorded as its collision cross section is 190.01

Given item `O=C(Nc1ccc(Cl)cc1)Nc1ccc(Cl)c(Cl)c1` , the value recorded as its collision cross section is 173.98

Given item Cc1cnc2ccc3c(nc(N)n3C)c2n1 [2-Amino-3,8-dimethylimidazo-[4,5-f]quinoxaline (MeIQx)] , the value recorded as its collision cross section is 147.79

Given item CC1(C)CC(N(C=O)CCCCCCN(C=O)C2CC(C)(C)NC(C)(C)C2)CC(C)(C)N1 [Univul-4050H] , the value recorded as its collision cross section is 226.35
